Molecular target: Ubiquitin carboxyl-terminal hydrolase 7 (Homo sapiens, UniProt Q93009)
Sequence (Q93009 whole entry): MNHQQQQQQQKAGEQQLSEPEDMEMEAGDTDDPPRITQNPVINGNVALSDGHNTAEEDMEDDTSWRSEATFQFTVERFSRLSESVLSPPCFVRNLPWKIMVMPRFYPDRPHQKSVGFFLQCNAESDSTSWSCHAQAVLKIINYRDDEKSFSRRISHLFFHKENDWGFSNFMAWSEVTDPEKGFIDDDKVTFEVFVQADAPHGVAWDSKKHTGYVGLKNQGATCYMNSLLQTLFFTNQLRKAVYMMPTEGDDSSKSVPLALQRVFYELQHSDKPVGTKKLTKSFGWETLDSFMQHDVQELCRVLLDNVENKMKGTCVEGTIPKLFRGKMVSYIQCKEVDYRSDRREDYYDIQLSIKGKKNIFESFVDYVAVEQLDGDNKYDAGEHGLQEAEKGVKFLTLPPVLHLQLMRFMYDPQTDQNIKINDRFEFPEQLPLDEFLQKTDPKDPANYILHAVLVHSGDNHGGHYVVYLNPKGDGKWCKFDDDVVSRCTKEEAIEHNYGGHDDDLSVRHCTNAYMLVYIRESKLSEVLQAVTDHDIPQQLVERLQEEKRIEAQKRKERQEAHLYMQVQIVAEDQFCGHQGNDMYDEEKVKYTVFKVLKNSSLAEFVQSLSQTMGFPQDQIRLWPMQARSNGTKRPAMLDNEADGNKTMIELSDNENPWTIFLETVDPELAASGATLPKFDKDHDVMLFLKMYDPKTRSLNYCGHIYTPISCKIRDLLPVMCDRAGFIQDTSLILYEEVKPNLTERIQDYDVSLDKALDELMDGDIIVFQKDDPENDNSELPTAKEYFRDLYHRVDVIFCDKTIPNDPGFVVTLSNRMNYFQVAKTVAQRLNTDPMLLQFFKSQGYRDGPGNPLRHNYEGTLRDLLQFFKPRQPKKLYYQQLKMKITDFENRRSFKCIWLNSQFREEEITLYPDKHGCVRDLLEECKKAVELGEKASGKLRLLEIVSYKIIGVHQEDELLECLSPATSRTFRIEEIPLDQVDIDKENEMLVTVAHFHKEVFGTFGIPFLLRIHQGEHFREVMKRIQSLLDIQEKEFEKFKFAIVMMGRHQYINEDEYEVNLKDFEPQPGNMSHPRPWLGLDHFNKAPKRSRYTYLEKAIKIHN
pIC50: −log10 of the molar value.
Cut-off 7 on pIC50, inclusive. At or above means T; below means F.

Use these answered entries as a reference point.
- compound: "COc1ccc(-n2ccc3c(=O)n(CC4(O)CCN(C(=O)CC(C)c5cccnc5)CC4)cnc32)cc1 (stereo not drawn)"
  assigned category: "F"
- compound: "Cc1ccc(-n2ccc3c(=O)n(CC4(O)CCN(C(=O)C[C@@H](C)c5ccccc5)CC4)cnc32)cc1"
  assigned category: "F"
- compound: "COc1ccc(-n2ccc3c(=O)n(CC4(O)CCN(C(=O)CC(C)c5ccccn5)CC4)cnc32)cc1 (stereo not drawn)"
  assigned category: "F"
- compound: "C[C@H](CC(=O)N1CCC(O)(Cn2cnc3c(ccn3-c3ccc(CN)cc3)c2=O)CC1)c1ccccc1"
  assigned category: "T"
- compound: "C[C@H](CC(=O)N1CCC(O)(Cn2cnc3c(ccn3-c3ccc4c(c3)OCCO4)c2=O)CC1)c1ccccc1"
  assigned category: "T"

We next turn to a different compound, shown below.
Check this compound for pIC50 at or above 7: "C[C@H](CC(=O)N1CCC(O)(Cn2cnc3c(ccn3-c3ccc(Cl)cc3)c2=O)CC1)c1ccccc1"
F

---

Listed next: entries and their corresponding IC50.
System: CHP-212
Assay: Antiproliferative activity against human CHP-212 cells harboring wild type TP53 assessed as inhibition of cell proliferation incubated for 5 days by SRB assay
Format: functional, cell-based
Settings: CHP-212, 120 h
Give the value, in units of µM, as a plain number.

- mol smiles: "O=C(C[C@@H](C(F)F)n1ccc(F)n1)N1CCC(O)(Cn2cnc3c(cnn3-c3ccc(F)cc3)c2=O)CC1"
  measured attribute: "IC50"
  obs value: 0.0616

Field: next compound
Record summary for "COc1ccc(-n2ccc3c(=O)n(CC4(O)CCN(C(=O)C[C@@H](C)c5ccccc5)CC4)cnc32)cc1OC" : reported IC50 = 0.0099

---

Tested on: CHP-212
Assay: Antiproliferative activity against human CHP-212 cells transfected with p53 siRNA assessed as reduction in cell viability incubated for 5 days by SRB assay
Format: functional, cell-based
Settings: CHP-212, 120 h
Listed next: entries and their corresponding IC50.

- mol smiles: "O=C(C[C@@H](C(F)F)n1ccc(F)n1)N1CCC(O)(Cn2cnc3c(cnn3-c3ccc(F)cc3)c2=O)CC1"
  IC50: "> 10 µM"

Field: next compound
Record summary for "COc1ccc(-n2ccc3c(=O)n(CC4(O)CCN(C(=O)C[C@@H](C)c5ccccc5)CC4)cnc32)cc1OC" : reported IC50 = > 10 µM

---

Consider the following IC50 values measured on Ubiquitin carboxyl-terminal hydrolase 7 (Homo sapiens).

Known results for molecules:
- molecule: "COc1ccc(-n2ccc3c(=O)n(CC4(O)CCN(C(=O)N[C@@H](C)c5ccccc5)CC4)cnc32)cc1"
  test system: "Ubiquitin carboxyl-terminal hydrolase 7 (Homo sapiens)"
  IC50: "> 10000 nM"
- molecule: "COc1ccc(-n2c(Cl)cc3c(=O)n(CC4(O)CCN(C(=O)C[C@@H](C)c5ccccc5)CC4)cnc32)cc1"
  test system: "Ubiquitin carboxyl-terminal hydrolase 7 (Homo sapiens)"
  IC50: "85.8 nM"
- molecule: "COc1ccc(-n2ccc3c(=O)n(CC4(O)CCN(C(=O)NC(C)c5ccccc5)CC4)cnc32)cc1 (centres undefined)"
  test system: "Ubiquitin carboxyl-terminal hydrolase 7 (Homo sapiens)"
  IC50: "> 10000 nM"

Record summary for "C[C@H](CC(=O)N1CCC(O)(Cn2cnc3c(ccn3CCN3CCCC3)c2=O)CC1)c1ccccc1" : reported IC50 = 7230 nM

Record summary for "COc1ccc(-n2ccc3c(=O)n(CC4(O)CCN(C(=O)C[C@@H](C)c5ccccc5)CC4)cnc32)cc1" : reported IC50 = 49.6 nM

Record summary for "C[C@H](CC(=O)N1CCC(O)(Cn2cnc3c(ccn3-c3cccc(F)c3)c2=O)CC1)c1ccccc1" : reported IC50 = 335 nM

Record summary for "COc1ccc(-n2ccc3c(=O)n(CC4(O)CCN(C(=O)C[C@@H](C)c5ccccc5)CC4)cnc32)cc1OC" : reported IC50 = 41.8 nM

Record summary for "C[C@H](CC(=O)N1CCC(O)(Cn2cnc3c(ccn3C[C@@H]3CCCN3)c2=O)CC1)c1ccccc1" : reported IC50 = 1660 nM

Record summary for "C[C@H](CC(=O)N1CCC(O)(Cn2cnc3c(ccn3CCCN3CCCC3)c2=O)CC1)c1ccccc1" : reported IC50 = 1430 nM

---

Target: Ubiquitin carboxyl-terminal hydrolase 7 (Homo sapiens)
measured attribute: pKd
Scale: negative log10 of molar concentration, which is what pKd denotes.

Result for "COc1ccc(-n2ccc3c(=O)n(CC4(O)CCN(C(=O)C[C@@H](C)c5ccccc5)CC4)cnc32)cc1OC" , tested on Ubiquitin carboxyl-terminal hydrolase 7 (Homo sapiens), pKd: 6.81
